Target: Acetylcholinesterase (Electrophorus electricus, UniProt O42275)
Sequence (O42275 whole entry): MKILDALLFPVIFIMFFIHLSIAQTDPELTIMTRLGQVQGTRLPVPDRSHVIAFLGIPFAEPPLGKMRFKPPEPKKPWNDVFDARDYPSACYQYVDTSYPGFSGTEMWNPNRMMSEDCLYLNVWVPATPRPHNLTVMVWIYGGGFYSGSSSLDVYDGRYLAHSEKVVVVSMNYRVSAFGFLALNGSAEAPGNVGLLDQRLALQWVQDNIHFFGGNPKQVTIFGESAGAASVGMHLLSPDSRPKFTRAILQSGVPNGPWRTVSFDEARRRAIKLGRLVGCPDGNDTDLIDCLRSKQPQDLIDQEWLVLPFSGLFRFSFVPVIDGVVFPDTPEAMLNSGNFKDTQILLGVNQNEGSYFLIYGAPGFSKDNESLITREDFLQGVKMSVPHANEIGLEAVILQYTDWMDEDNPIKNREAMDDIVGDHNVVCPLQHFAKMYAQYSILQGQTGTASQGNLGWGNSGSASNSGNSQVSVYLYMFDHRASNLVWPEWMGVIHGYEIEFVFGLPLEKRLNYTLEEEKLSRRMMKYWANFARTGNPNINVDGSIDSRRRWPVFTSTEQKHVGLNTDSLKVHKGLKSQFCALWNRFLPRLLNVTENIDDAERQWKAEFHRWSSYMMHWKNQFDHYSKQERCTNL
pIC50: −log10 of the molar value.
Overview of reported pIC50 across a group of compounds:

# record.smiles, study.system, relation.symbol, pIC50
data = [
    ("Cc1ccc(-c2noc(Cn3cc(Cn4c5ccccc5c(=O)c5cc(Cl)ccc54)nn3)n2)cc1", "Acetylcholinesterase (Electrophorus electricus, UniProt O42275)", "<", 4.00),
    ("Cc1ccc(-c2noc(Cn3cc(Cn4c5ccccc5c(=O)c5ccccc54)nn3)n2)cc1", "Acetylcholinesterase (Electrophorus electricus, UniProt O42275)", "=", 4.31),
    ("COc1ccc(-c2noc(Cn3cc(Cn4c5ccccc5c(=O)c5cccc(OC)c54)nn3)n2)cc1", "Acetylcholinesterase (Electrophorus electricus, UniProt O42275)", "<", 4.00),
    ("COc1cccc2c(=O)c3ccccc3n(Cc3cn(Cc4nc(-c5ccc(C)cc5)no4)nn3)c12", "Acetylcholinesterase (Electrophorus electricus, UniProt O42275)", "<", 4.00),
    ("O=c1c2ccccc2n(Cc2cn(Cc3nc(-c4ccc(Cl)cc4)no3)nn2)c2ccccc12", "Acetylcholinesterase (Electrophorus electricus, UniProt O42275)", "=", 4.61),
    ("COc1ccc(-c2noc(Cn3cc(Cn4c5ccccc5c(=O)c5cc(Br)ccc54)nn3)n2)cc1", "Acetylcholinesterase (Electrophorus electricus, UniProt O42275)", "<", 4.00),
    ("COc1ccc(-c2noc(Cn3cc(Cn4c5ccccc5c(=O)c5ccccc54)nn3)n2)cc1", "Acetylcholinesterase (Electrophorus electricus, UniProt O42275)", "=", 4.94),
    ("COc1ccc(-c2noc(Cn3cc(Cn4c5ccccc5c(=O)c5cc(OC)ccc54)nn3)n2)cc1", "Acetylcholinesterase (Electrophorus electricus, UniProt O42275)", "<", 4.00),
    ("COc1ccc2c(c1)c(=O)c1ccccc1n2Cc1cn(Cc2nc(-c3ccc(Cl)cc3)no2)nn1", "Acetylcholinesterase (Electrophorus electricus, UniProt O42275)", "=", 4.11),
]

---

Quick record of IC50 values for Acetylcholinesterase (Electrophorus electricus, UniProt O42275).
reported.endpoint: IC50

# record.smiles, measured.result
rows = [
    ("O=c1c2ccccc2n(Cc2cn(Cc3nc(-c4ccc(Cl)cc4)no3)nn2)c2ccc(Cl)cc12", "44.9 µM"),
    ("Cc1ccc2c(c1)c(=O)c1ccccc1n2Cc1cn(Cc2nc(-c3ccc(Cl)cc3)no2)nn1", "> 100 µM"),
    ("O=c1c2ccccc2n(Cc2cn(Cc3nc(-c4ccc(Br)cc4)no3)nn2)c2ccccc12", "67.4 µM"),
    ("COc1ccc(-c2noc(Cn3cc(Cn4c5ccccc5c(=O)c5cccc(Cl)c54)nn3)n2)cc1", "> 100 µM"),
    ("O=c1c2ccccc2n(Cc2cn(Cc3nc(-c4ccc(Cl)cc4)no3)nn2)c2ccc(Br)cc12", "> 100 µM"),
    ("COc1ccc2c(c1)c(=O)c1ccccc1n2Cc1cn(Cc2nc(-c3ccc(C)cc3)no2)nn1", "> 100 µM"),
    ("COc1ccc(-c2noc(Cn3cc(Cn4c5ccccc5c(=O)c5cc(Cl)ccc54)nn3)n2)cc1", "> 100 µM"),
]

Cited source for all entries: BindingDB's records for doi:10.1111/cbdd.12609
